All values here come from PubChem BioAssay (NCI).

growth by entry:
# System: COLO 205 colon
# assay_details: NCI-60 one-dose screen, 48 h (100 = growth as untreated, 0 = no growth, -100 = all killed)
# applied_conditions: 10 µM
This is part of a sample that, as a whole, favours compounds with a hit. Of some 83,000 tested, about 20% had one in any assay.
Response body: numeric value in %, unit text excluded.

Here is how some compounds turned out for growth.
{"compound": "CC1=C(CN(O)C(N)=O)C2=C(C)C3(CC3)[C@@](C)(O)C(=O)C2=C1", "growth, %": -35.9}
{"compound": "CC(=O)O[C@@H]1[C@@H]2O[C@H]2[C@@](C)(O)C(=O)[C@@H](C)C/C=C/[C@H]2[C@@H]3O[C@]3(C)[C@@H](C)C3[C@H](Cc4ccccc4)NC(=O)[C@@]312 (some centres not stated)", "growth, %": 38.8}
{"compound": "COc1cc2c(O[C@@H]3OC[C@H](OC(C)=O)[C@H](OC(C)=O)[C@H]3O)c3c(c(-c4ccc5c(c4)OCO5)c2cc1OC)C(=O)OC3", "growth, %": 5.65}
{"compound": "COc1cc(OC)c(S(=O)(=O)N(CCCl)CCCl)cc1C(=O)/C=C/c1ccc(Cl)cc1", "growth, %": 101}
{"compound": "CC1=C[C@H]2O[C@@H]3C[C@@H](O)[C@](C)([C@@]2(C)CC1)[C@@]31CO1", "growth, %": 3.33}

Incoming: Fill in reported growth for this entry: C=C1[C@@H](C)C2[C@H](Cc3ccccc3)NC(=O)[C@]23[C@H](OC(C)=O)/C=C/[C@@](C)(O)C(=O)[C@@H](C)C/C=C/[C@H]3[C@@H]1O (some centres not stated)
Outgoing: 35

Incoming: Fill in reported growth for this entry: CCC(C)[C@H]1C(=O)O[C@H](C(C)C)C(=O)N(C)[C@@H](C(C)C)C(=O)O[C@H](C(C)C)C(=O)N(C)[C@@H](C(C)C)C(=O)O[C@H](C(C)C)C(=O)N1C (some centres not stated)
Outgoing: -74.7

----------
# System: SK-MEL-2 melanoma
# assay_details: NCI-60 one-dose screen, 48 h (100 = growth as untreated, 0 = no growth, -100 = all killed)
# applied_conditions: 10 µM
This is part of a sample that, as a whole, favours compounds with a hit. Of some 83,000 tested, about 20% had one in any assay.
Entry class follows growth: range 1 = under -50%, range 2 = from -50% up to -20%, range 3 = -20% and over

Incoming: # bin label for CC1=C(CN(O)C(N)=O)C2=C(C)C3(CC3)[C@@](C)(O)C(=O)C2=C1
Outgoing: range 2

Incoming: # bin label for CC(C)=CCc1c2c(c(O)c3c1O[C@]14C(=C[C@@H]5C[C@H]1C(C)(C)O[C@@]4(C/C=C(/C)C(=O)O)C5=O)C3=O)C=CC(C)(C)O2
Outgoing: range 1

Incoming: # bin label for CC1=C[C@H]2O[C@@H]3C[C@H]4OC(=O)/C=C\C=C\[C@H]([C@@H](C)O)OCC/C(C)=C/C(=O)OC[C@@]2(CC1)[C@]4(C)[C@]31CO1
Outgoing: range 1

Incoming: # bin label for CC1=C2C(=C[C@@](C)(COS(C)(=O)=O)[C@@H]2O)C(=O)[C@](C)(O)C12CC2
Outgoing: range 2

Incoming: # bin label for CC1=C[C@H]2O[C@@H]3C[C@H]4OC(=O)/C=C\C=C\[C@H]([C@@H](C)O)OCC[C@@H](C)[C@H](O)C(=O)OC[C@@]2(CC1)[C@]4(C)[C@]31CO1
Outgoing: range 1

----------
# Tested on: DU-145 prostate
# assay_details: NCI-60 one-dose screen, 48 h (100 = growth as untreated, 0 = no growth, -100 = all killed)
# applied_conditions: 10 µM
The panel holds about 83,000 compounds, 20% with a hit somewhere; the sample as a whole holds those more often.
quantity_name: growth (%)
Response body: numeric value in %, unit text excluded.

Here is how some compounds turned out for growth.
{"compound": "CC1=C(CCC=NNC(N)=O)C2=C(C)C3(CC3)[C@@](C)(O)C(=O)C2=C1", "tested_system": "DU-145 prostate", "unit_tag": "%", "measured_value": -9.85}
{"compound": "CC1=C2C(=O)[C@](C)(CO)C=C2C(=O)[C@](C)(O)C12CC2", "tested_system": "DU-145 prostate", "unit_tag": "%", "measured_value": 7.23}
{"compound": "CN1C(=O)[C@]23SSC1(C)C(=O)N2[C@H]1Nc2ccccc2C1([C@@]12c4ccccc4N[C@@H]1N1C(=O)C4(C)SS[C@]1(C(=O)N4C)[C@H]2O)[C@@H]3O (stereo partly specified)", "tested_system": "DU-145 prostate", "unit_tag": "%", "measured_value": -94.1}
{"compound": "Cc1ccc(CNc2nc3ccc(OC/C(=C/F)CN)cc3o2)cn1", "tested_system": "DU-145 prostate", "unit_tag": "%", "measured_value": 88.4}
{"compound": "CC1=C(CN(O)C(N)=O)C2=C(C)C3(CC3)[C@](C)(O)C(=O)C2=C1", "tested_system": "DU-145 prostate", "unit_tag": "%", "measured_value": 10}
{"compound": "CN(CCF)/N=N/c1nc[nH]c1C(N)=O", "tested_system": "DU-145 prostate", "unit_tag": "%", "measured_value": 24.6}

Now consider the entry below.
Incoming: Fill in reported growth for this entry: NC1CCc2cc(O)c(O)cc2C1 (stereo unspecified)
Outgoing: 94.3

----------
# Test system: IGROV1 ovarian
# assay_details: NCI-60 one-dose screen, 48 h (100 = growth as untreated, 0 = no growth, -100 = all killed)
# applied_conditions: 10 µM
About 83,000 compounds went through this panel and 20% of them were active in at least one assay; those are over-represented in the sample as a whole.
growth by entry:
Response body: numeric value in %, unit text excluded.

{"molecule": "COc1cc2c(O[C@@H]3OC[C@H](O)[C@H](O)[C@H]3O)c3c(c(-c4ccc5c(c4)OCO5)c2cc1OC)C(=O)OC3", "growth [%]": 53}

Incoming: Fill in reported growth for this entry: CC1=C2C(=C[C@@](C)(COC(=O)c3ccc(S(=O)(=O)F)cc3)[C@@H]2O)C(=O)[C@](C)(O)C12CC2
Outgoing: -13.9

Incoming: Fill in reported growth for this entry: CC1=C[C@H]2O[C@@H]3C[C@@H](O)[C@](C)([C@@]2(C)CC1)[C@@]31CO1
Outgoing: 28.3

Incoming: Fill in reported growth for this entry: CCC(C)[C@H]1C(=O)O[C@H](C(C)C)C(=O)N(C)[C@@H](C(C)C)C(=O)O[C@H](C(C)C)C(=O)N(C)[C@@H](C(C)C)C(=O)O[C@H](C(C)C)C(=O)N1C (stereo partly specified)
Outgoing: 34.4

Incoming: Fill in reported growth for this entry: NC1CCc2cc(O)c(O)cc2C1 (stereo unspecified)
Outgoing: 97.9

Incoming: Fill in reported growth for this entry: CC1=C[C@H]2O[C@@H]3C[C@H]4OC(=O)/C=C\C=C\[C@H]([C@@H](C)O)OCC/C(C)=C/C(=O)OC[C@@]2(CC1)[C@]4(C)[C@]31CO1
Outgoing: -10.7

----------
growth by entry:
# Tested on: IGROV1 ovarian
# assay_details: NCI-60 one-dose screen, 48 h (100 = growth as untreated, 0 = no growth, -100 = all killed)
# applied_conditions: 10 µM
About 83,000 compounds went through this panel and 20% of them were active in at least one assay; those are over-represented in the sample as a whole.
Response body: numeric value in %, unit text excluded.

{"compound": "O=C(CCCc1ccc(N(CCCl)CCCl)cc1)OCc1ccccc1", "quantity_name": "growth", "measured_value": 87.8}
{"compound": "CC1=C(CN(O)C(N)=O)C2=C(C)C3(CC3)[C@](C)(O)C(=O)C2=C1", "quantity_name": "growth", "measured_value": 29}

Incoming: Fill in reported growth for this entry: CN1C(=O)[C@]23SSC1(C)C(=O)N2[C@H]1Nc2ccccc2C1([C@@]12c4ccccc4N[C@@H]1N1C(=O)C4(C)SS[C@]1(C(=O)N4C)[C@H]2O)[C@@H]3O (stereo partly specified)
Outgoing: -71.7

Incoming: Fill in reported growth for this entry: COc1cc2c(cc1OC)[C@@H]1N(CC2)C(=O)c2ccccc2[C@@]1(C)C(=O)O
Outgoing: 106

Incoming: Fill in reported growth for this entry: COc1cccc2c1cc([N+](=O)[O-])c1c(C(=O)O)cc3c(c12)OCO3
Outgoing: 106

Incoming: Fill in reported growth for this entry: C[C@@H]1C[C@H]2C(=O)O[C@@H](C)C(NC(=O)[C@H](Cc3cc(F)cc(F)c3)NC(=O)Nc3ccc(OS(=O)(=O)F)cc3)C(=O)N3CCC[C@H]3C(=O)N3CCO[C@H](C)[C@H]3C(=O)N[C@@H](CO)C(=O)N2C1 (stereo partly specified)
Outgoing: 47.4

Incoming: Fill in reported growth for this entry: CC1=C(CCC=NNC(N)=O)C2=C(C)C3(CC3)[C@@](C)(O)C(=O)C2=C1
Outgoing: -17.8

Incoming: Fill in reported growth for this entry: CC1=C[C@H]2O[C@@H]3C[C@H]4OC(=O)/C=C\C=C\[C@H]([C@@H](C)O)OCC[C@@H](C)[C@H](O)C(=O)OC[C@@]2(CC1)[C@]4(C)[C@]31CO1
Outgoing: -13.4

Incoming: Fill in reported growth for this entry: CC(C)=CCc1c2c(c(O)c3c1O[C@]14C(=C[C@@H]5C[C@H]1C(C)(C)O[C@@]4(C/C=C(/C)C(=O)O)C5=O)C3=O)C=CC(C)(C)O2
Outgoing: -55.2

Incoming: Fill in reported growth for this entry: C=C1[C@@H](C)C2[C@H](Cc3ccccc3)NC(=O)[C@]23[C@H](OC(C)=O)/C=C/[C@@](C)(O)C(=O)[C@@H](C)C/C=C/[C@H]3[C@@H]1O (stereo partly specified)
Outgoing: 8.46

Incoming: Fill in reported growth for this entry: CC1=C2C(=C[C@@](C)(C=O)[C@@H]2O)C(=O)[C@](C)(O)C12CC2
Outgoing: 9.24

Incoming: Fill in reported growth for this entry: COC(=O)[C@H]1[C@@H](O)[C@@]2(O)c3c(OC)cc(OC)cc3O[C@@]2(c2ccc(OC)cc2)[C@@H]1c1ccccc1
Outgoing: -17.3

Incoming: Fill in reported growth for this entry: COc1cc2c(O[C@@H]3OC[C@H](OC(C)=O)[C@H](OC(C)=O)[C@H]3O)c3c(c(-c4ccc5c(c4)OCO5)c2cc1OC)C(=O)OC3
Outgoing: 47.9

Incoming: Fill in reported growth for this entry: CN(CCF)/N=N/c1nc[nH]c1C(N)=O
Outgoing: 44

Incoming: Fill in reported growth for this entry: C[C@@H]1CCC/C=C/[C@H]2C[C@@H](O)C[C@@H]2[C@@H](O)/C=C/C(=O)O1
Outgoing: 5.5

Incoming: Fill in reported growth for this entry: CC1=C(CN(O)C(N)=O)C2=C(C)C3(CC3)[C@@](C)(O)C(=O)C2=C1
Outgoing: 11.1
